# target: Glycogen synthase kinase-3 beta (Homo sapiens) (UniProt P49841);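 also: reported values are mean percent inhibition of GSK3B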
# Sequence (P49841 whole entry, looked up): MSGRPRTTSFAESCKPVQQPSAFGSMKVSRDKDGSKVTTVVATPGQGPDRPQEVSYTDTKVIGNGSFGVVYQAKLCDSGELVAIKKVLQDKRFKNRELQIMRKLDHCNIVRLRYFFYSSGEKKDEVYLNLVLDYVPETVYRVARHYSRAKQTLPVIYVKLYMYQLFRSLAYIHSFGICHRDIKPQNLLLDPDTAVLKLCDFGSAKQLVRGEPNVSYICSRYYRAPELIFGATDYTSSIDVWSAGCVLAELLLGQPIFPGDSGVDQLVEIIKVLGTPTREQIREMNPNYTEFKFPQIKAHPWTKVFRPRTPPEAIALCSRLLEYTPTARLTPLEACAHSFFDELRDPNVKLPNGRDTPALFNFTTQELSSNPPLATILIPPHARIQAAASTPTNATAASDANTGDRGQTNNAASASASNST
# condition-info: at 1 µM
For each record, write down the corresponding inhibition.
Give bare numbers, in %.

The cases that follow already have their inhibition on record.
# smiles-entry, inhibition (%)
rows = [
    ("COc1cc(/C=N/Nc2ncnc3[nH]ncc23)ccc1O", 24.5),
    ("CCCN(CCS(C)(=O)=O)Cc1ccc(-c2ccc3ncnc(Nc4ccc(OCc5cccc(F)c5)c(Cl)c4)c3c2)o1", 10.2),
    ("CCn1c(-c2nonc2N)nc2cnc(Oc3cccc(NC(=O)c4ccc(N(C)C)cc4)c3)cc21", 41),
    ("COc1ccc2[nH]c3c4[nH]c5ccc(OC)cc5c4c4c(c3c2c1)C(=O)NC4=O", 14.7),
    ("FC(F)(F)c1cccc(-c2nn3ncccc3c2-c2ccnc(Nc3ccc4c(c3)OCCO4)n2)c1", 33.3),
]

Take each entry in turn and give its inhibition.
1. COc1ccc(-c2cc(-c3c[nH]nc3-c3ccccn3)ccn2)cc1
2. Cc1cccc(Nc2ncc(-c3ccccc3)o2)c1

Return:
6.22
12

Take each entry in turn and give its inhibition.
1. CN1CCC(n2cnc(-c3ccc(F)cc3)c2-c2ccnc(N)n2)CC1
2. COc1ccc(-c2nn3ncccc3c2-c2ccnc(Nc3ccc4c(c3)OCCO4)n2)cc1
3. COc1ccc(-c2cc3c(N)ncnc3o2)cc1
4. CCn1cc(-c2ccnc3[nH]ccc23)c(-c2cccc(NC(=O)Nc3ccc(OCc4ccccc4)cc3)c2)n1

Return:
1. 8.08
2. 5.33
3. 8
4. 3.94

Take each entry in turn and give its inhibition.
1. NC(=O)c1sc(-n2cnc3ccc(C(F)(F)F)cc32)cc1OCc1ccccc1Br
2. COc1cccc(-c2c[nH]c3c(N/N=C/c4ccncc4)ncnc23)c1
3. COC(=O)Nc1nc2ccc(S(=O)(=O)c3ccc(NC(=O)Nc4cc(C(F)(F)F)ccc4F)cc3)cc2[nH]1

Return:
1: 3.8; 2: 83.5; 3: 7.61

====

# target: Tyrosine-protein kinase Fgr (Homo sapiens)
# condition-info: at 1 µM
Classification field: true (1) = inhibition at or over 20%; false (0) = inhibition under 20%.

# smiles-entry, target, cat
measured = [
    ("Clc1ccc(-c2nn3ncccc3c2-c2ccnc(Nc3ccccc3)n2)cc1", "Tyrosine-protein kinase Fgr (Homo sapiens)", "true (1)"),
    ("COc1cc(Nc2nccc(Nc3ccc4c(C)n[nH]c4c3)n2)cc(OC)c1OC", "Tyrosine-protein kinase Fgr (Homo sapiens)", "true (1)"),
    ("O=C(O[C@H]1CN[C@H](C#Cc2cc3ncnc(Nc4ccc(Cc5ccccc5)cc4)c3s2)C1)N1CCOCC1", "Tyrosine-protein kinase Fgr (Homo sapiens)", "true (1)"),
    ("N#Cc1c(NC(=O)CN2CCOCC2)sc2c1CCCC2", "Tyrosine-protein kinase Fgr (Homo sapiens)", "false (0)"),
]

Consider the additional compound presented here.
Enquiry: Could you verify whether the entry CN(C)CCOc1ccc(-c2nc(-c3ccncc3)c(-c3ccc4c(c3)CC/C4=N\O)[nH]2)cc1 shows inhibition of no less than 20%?
Return: false (0)

====

# target: SRSF protein kinase 3 (Homo sapiens) (UniProt Q9UPE1);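 also: mean of replicate inhibition values against MSSK1 kinase, profiled within the GSK PKIS kinase inhibitor set screen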
# Sequence (Q9UPE1 whole entry): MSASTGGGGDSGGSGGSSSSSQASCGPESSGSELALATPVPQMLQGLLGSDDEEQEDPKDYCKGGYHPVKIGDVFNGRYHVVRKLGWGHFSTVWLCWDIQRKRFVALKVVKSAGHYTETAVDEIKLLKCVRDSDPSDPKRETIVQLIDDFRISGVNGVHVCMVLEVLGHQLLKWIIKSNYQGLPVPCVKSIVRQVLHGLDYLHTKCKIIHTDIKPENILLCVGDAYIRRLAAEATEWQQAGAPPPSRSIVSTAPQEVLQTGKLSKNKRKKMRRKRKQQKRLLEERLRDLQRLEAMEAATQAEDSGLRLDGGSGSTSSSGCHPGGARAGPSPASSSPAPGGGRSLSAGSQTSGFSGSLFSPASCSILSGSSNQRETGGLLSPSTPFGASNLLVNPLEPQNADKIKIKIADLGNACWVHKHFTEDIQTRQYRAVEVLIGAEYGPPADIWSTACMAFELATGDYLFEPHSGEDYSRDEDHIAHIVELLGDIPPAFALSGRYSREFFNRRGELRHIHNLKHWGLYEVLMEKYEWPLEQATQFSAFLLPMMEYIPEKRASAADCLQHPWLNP
# condition-info: at 0.1 µM
endpoint-name: inhibition (%)
Answers are plain numbers, in %.

# smiles-entry, endpoint-name, meas-value
rows = [
    ("COc1cccc(-n2ncc3c(N/N=C/c4ccc(F)cc4)ncnc32)c1", "inhibition", -0.53),
]

Take each entry in turn and give its inhibition.
1. CN(C)CCOc1ccc(-c2nc(-c3ccncc3)c(-c3ccc4c(c3)CC/C4=N\O)[nH]2)cc1
2. COc1cc(Nc2nccc(Nc3ccc4c(C)n[nH]c4c3)n2)cc(OC)c1OC
3. COC(=O)Nc1nc2ccc(Oc3ccc(NC(=O)Nc4cccc(Cl)c4)cc3)cc2[nH]1
4. Fc1cccc(COc2ccc(Nc3ncnc4sc(-c5ccco5)cc34)cc2Cl)c1
5. O=S(=O)(CCNCc1ccc(-c2ccc3ncnc(Nc4ccc(OCc5cccc(F)c5)c(Cl)c4)c3c2)o1)c1ccccc1

Return:
[1.13, 1.08, -1.41, -0.82, -1.7]

Take each entry in turn and give its inhibition.
1. N#Cc1c(NC(=O)c2ccc(F)cc2)sc2c1CCCC2
2. CCNC(=O)O[C@H]1CN[C@H](C#Cc2cc3ncnc(Nc4ccc(OCc5cccc(F)c5)c(Cl)c4)c3s2)C1

Return:
[-1.54, 1.52]

====

# target: Glycogen synthase kinase-3 alpha (Homo sapiens) (UniProt P49840);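 also: values are mean inhibition of GSK3A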
# Sequence (P49840 2-483 limits assumed): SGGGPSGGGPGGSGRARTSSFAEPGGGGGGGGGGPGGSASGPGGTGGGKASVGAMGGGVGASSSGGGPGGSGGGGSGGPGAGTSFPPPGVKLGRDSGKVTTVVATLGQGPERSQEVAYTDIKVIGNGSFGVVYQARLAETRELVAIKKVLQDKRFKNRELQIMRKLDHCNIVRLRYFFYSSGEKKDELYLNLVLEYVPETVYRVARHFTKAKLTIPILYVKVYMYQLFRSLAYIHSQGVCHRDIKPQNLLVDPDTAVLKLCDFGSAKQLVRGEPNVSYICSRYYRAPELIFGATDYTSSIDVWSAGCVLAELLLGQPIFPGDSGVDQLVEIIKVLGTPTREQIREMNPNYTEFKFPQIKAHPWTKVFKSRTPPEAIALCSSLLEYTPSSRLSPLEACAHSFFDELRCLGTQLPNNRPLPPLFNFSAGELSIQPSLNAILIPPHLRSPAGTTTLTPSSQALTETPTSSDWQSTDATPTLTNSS
# condition-info: at 0.1 µM
For each record, write down the corresponding inhibition.
Numbers only, in %.

# smiles-entry, endpoint-name, meas-value
rows = [
    ("CNC(=O)c1cccc(C#Cc2cncnc2Nc2ccc(OCc3cccc(F)c3)c(Cl)c2)c1", "inhibition", 1.09),
    ("CCCN1CCC(c2ccc(Nc3nc(Nc4cc(F)ccc4C(N)=O)c4cc[nH]c4n3)c(OC)c2)CC1", "inhibition", 6.12),
    ("Fc1ccc(-c2nn3ccccc3c2-c2ccncc2)cc1", "inhibition", 1.02),
]

Kindly note: Glycogen synthase kinase-3 alpha (Homo sapiens) (UniProt P49840), CN(C)CCOc1ccc(-c2nc(-c3ccncc3)c(-c3ccc4c(c3)CC/C4=N\O)[nH]2)cc1 , inhibition value reported: 5.08

====

# target: NUAK family SNF1-like kinase 1 (Homo sapiens);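 also: reported values are mean inhibition of ARK5 (NUAK1), from the GSK PKIS screen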
# Sequence (whole entry): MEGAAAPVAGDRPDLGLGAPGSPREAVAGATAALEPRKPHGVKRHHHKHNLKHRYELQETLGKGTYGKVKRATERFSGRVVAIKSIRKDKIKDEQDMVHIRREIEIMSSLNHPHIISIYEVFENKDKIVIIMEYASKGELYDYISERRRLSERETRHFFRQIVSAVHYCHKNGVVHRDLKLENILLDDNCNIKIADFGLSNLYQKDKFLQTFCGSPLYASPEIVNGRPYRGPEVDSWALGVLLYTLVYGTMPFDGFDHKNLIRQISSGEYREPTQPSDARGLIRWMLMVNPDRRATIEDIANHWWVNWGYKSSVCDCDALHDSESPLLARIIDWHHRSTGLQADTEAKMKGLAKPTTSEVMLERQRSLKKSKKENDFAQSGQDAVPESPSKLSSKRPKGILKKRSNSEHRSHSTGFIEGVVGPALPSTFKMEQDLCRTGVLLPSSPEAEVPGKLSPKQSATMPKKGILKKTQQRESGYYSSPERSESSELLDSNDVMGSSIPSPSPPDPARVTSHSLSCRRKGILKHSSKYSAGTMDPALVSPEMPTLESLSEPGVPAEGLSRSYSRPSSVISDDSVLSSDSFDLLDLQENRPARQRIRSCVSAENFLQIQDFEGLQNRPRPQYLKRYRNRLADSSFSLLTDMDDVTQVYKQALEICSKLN
# condition-info: at 0.1 µM
endpoint-name: inhibition (%)
Answers are plain numbers, in %.

The cases that follow already have their inhibition on record.
# smiles-entry, inhibition, %
data = [
    ("CCOc1ccc2c(-c3ccnc(Nc4cccc(C(F)(F)F)c4)n3)cnn2n1", 2.71),
    ("NC(=O)c1sc(-n2cnc3ccc(C(F)(F)F)cc32)cc1OCc1ccccc1Br", -0.18),
    ("COc1ccc(-c2oc3ncnc(N)c3c2-c2ccc(NC(=O)Nc3cc(C(F)(F)F)ccc3F)cc2)cc1", 4.62),
]

Take each entry in turn and give its inhibition.
1. Fc1ccc(-c2cc(-c3c[nH]nc3-c3ccccn3)ccn2)cc1
2. N#Cc1c(NC(=O)CN2CCOCC2)sc2c1CCCC2
3. COC(=O)Nc1nc2ccc(S(=O)(=O)c3ccc(NC(=O)Nc4cc(C(F)(F)F)ccc4F)cc3)cc2[nH]1
4. COc1cc2ncn(-c3cc(OCc4ccccc4C(F)(F)F)c(C(=O)N(C)C)s3)c2cc1OC

Return:
1. -0.78
2. 2.61
3. 3.25
4. 1.04

====

For each record, write down the corresponding inhibition.
# target: Phosphorylase b kinase gamma catalytic chain, liver/testis isoform (Homo sapiens) (UniProt P15735);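 also: reported value is the mean inhibition of PHKG2 from the GSK_PKIS screening set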
# Sequence (P15735 whole entry, canonical isoform): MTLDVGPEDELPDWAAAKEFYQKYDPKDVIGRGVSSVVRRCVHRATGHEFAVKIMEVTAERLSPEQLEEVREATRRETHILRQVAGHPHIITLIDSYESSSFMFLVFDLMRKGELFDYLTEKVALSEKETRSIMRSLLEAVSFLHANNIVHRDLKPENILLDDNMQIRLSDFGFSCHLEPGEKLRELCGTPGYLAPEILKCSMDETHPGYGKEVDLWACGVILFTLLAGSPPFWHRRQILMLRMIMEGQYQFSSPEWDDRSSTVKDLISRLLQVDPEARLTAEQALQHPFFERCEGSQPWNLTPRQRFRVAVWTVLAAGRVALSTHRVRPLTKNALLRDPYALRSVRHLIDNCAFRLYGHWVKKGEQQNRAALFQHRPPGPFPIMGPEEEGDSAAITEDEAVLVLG
# condition-info: at 1 µM
One number for each entry, in %.

The cases that follow already have their inhibition on record.
# smiles-entry, inhibition / %
data = [
    ("CC(C)COC(=O)c1ccc2c(c1)/C(=C/Nc1ccc(S(N)(=O)=O)cc1)C(=O)N2", 16.4),
    ("[O-][S+]1CCN(Cc2ccc(-c3ccc4ncnc(Nc5ccc(OCc6cccc(F)c6)c(Cl)c5)c4c3)o2)CC1", 6.77),
    ("CCn1c(-c2nonc2N)nc2cnc(Oc3cccc(NC(=O)c4ccc(N(C)C)cc4)c3)cc21", -0.74),
]

response.value for Cc1cccc(Nc2ncc(-c3ccccc3)o2)c1 (field: inhibition) = 3.71

====

# target: MAP kinase-interacting serine/threonine-protein kinase 2 (Homo sapiens) (UniProt Q9HBH9)
# Sequence (Q9HBH9 whole entry, looked up): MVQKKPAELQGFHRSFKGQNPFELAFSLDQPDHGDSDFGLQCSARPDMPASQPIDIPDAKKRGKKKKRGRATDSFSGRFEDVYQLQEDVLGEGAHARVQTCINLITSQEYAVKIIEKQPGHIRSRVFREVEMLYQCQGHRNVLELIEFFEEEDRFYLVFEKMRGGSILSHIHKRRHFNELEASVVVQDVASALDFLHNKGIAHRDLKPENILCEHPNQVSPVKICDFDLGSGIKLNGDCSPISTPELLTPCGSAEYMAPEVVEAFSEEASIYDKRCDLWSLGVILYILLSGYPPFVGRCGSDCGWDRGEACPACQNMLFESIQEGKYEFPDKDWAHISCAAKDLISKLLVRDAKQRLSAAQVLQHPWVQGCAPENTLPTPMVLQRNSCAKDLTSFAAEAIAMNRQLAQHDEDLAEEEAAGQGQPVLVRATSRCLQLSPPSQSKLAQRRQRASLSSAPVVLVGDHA
# condition-info: at 0.1 µM
# Description: GSK_PKIS: MNK2 mean inhibition at 0.1 uM [Nanosyn]
endpoint-name: inhibition (%)
One number for each entry, in %.

The cases that follow already have their inhibition on record.
# smiles-entry, target, unit-annotation, inhibition
data = [
    ("COc1cc2c(cc1Nc1nc(Nc3ccsc3C(N)=O)c3cc[nH]c3n1)N(C(=O)CN(C)C)CCC2(C)C", "MAP kinase-interacting serine/threonine-protein kinase 2 (Homo sapiens) (UniProt Q9HBH9)", "%", 1.36),
    ("Cc1ccc2c(-c3ccnc(Nc4ccccc4)n3)c(-c3ccc(F)cc3)nn2n1", "MAP kinase-interacting serine/threonine-protein kinase 2 (Homo sapiens) (UniProt Q9HBH9)", "%", 0.04),
    ("COc1ccc2c(-c3ccnc(Nc4cccc(OC(F)(F)F)c4)n3)cnn2n1", "MAP kinase-interacting serine/threonine-protein kinase 2 (Homo sapiens) (UniProt Q9HBH9)", "%", 2.32),
    ("COc1cccc(-n2ncc3c(N/N=C/c4ccc(F)cc4)ncnc32)c1", "MAP kinase-interacting serine/threonine-protein kinase 2 (Homo sapiens) (UniProt Q9HBH9)", "%", 4.13),
    ("Clc1ccc(-c2nn3ncccc3c2-c2ccnc(Nc3ccccc3)n2)cc1", "MAP kinase-interacting serine/threonine-protein kinase 2 (Homo sapiens) (UniProt Q9HBH9)", "%", 0.53),
]

Take each entry in turn and give its inhibition.
1. CC(C)COC(=O)c1ccc2c(c1)/C(=C/Nc1ccc(S(N)(=O)=O)cc1)C(=O)N2
2. COc1cccc(-c2c[nH]c3c(N/N=C/c4ccncc4)ncnc23)c1
3. Cc1ccc(O)cc1Nc1ccnc2cc(-c3ccccn3)ccc12

Return:
[1.73, 11.8, 1.72]

Take each entry in turn and give its inhibition.
1. COc1ccc2[nH]c3c4[nH]c5ccc(OC)cc5c4c4c(c3c2c1)C(=O)NC4=O
2. Fc1ccc(-c2nn3ncccc3c2-c2ccnc(Nc3ccc4c(c3)OCCO4)n2)cc1
3. NS(=O)(=O)c1ccc(Nc2ncc(-c3ccccc3)o2)cc1

Return:
8.34
0.58
3.92

Every entry's value here was drawn from ChEMBL document CHEMBL1961873.
